# assay-name: Bidirectional transport assay, Caco^BCRP−/− and Caco^MRP2−/− cells taken together
# Assay type: in vitro ADME
# measurement-conditions: human, pH 7.4, read-out: Papp (A-to-B) permeability

{"chemical-string": "CC(C)CN(C[C@@H](O)[C@H](Cc1ccccc1)NC(=O)O[C@H]1CO[C@H]2OCC[C@H]21)S(=O)(=O)c1ccc(N)cc1", "Papp A→B at 1 h, 5 μM": "1.7 to 1.8 ×10⁻⁶ cm/s"}

---

# assay-name: Bidirectional transport assay across MRP2/BCRP double KO Caco-2 monolayers
# measurement-conditions: human, pH 7.4
property-name: efflux ratio at 1 h, 5 μM

{"chemical-string": "Cc1c(O)cccc1C(=O)N[C@@H](CSc1ccccc1)[C@H](O)CN1C[C@H]2CCCC[C@H]2C[C@H]1C(=O)NC(C)(C)C", "meas-value": 6.41}
{"chemical-string": "C[C@H]1O[C@@H](O[C@H]2[C@@H](O)C[C@H](O[C@H]3[C@@H](O)C[C@H](O[C@H]4CC[C@@]5(C)[C@H](CC[C@@H]6[C@@H]5C[C@@H](O)[C@]5(C)[C@@H](C7=CC(=O)OC7)CC[C@]65O)C4)O[C@@H]3C)O[C@@H]2C)C[C@H](O)[C@@H]1O", "meas-value": 9.36}
